Target: human GPR119 (Homo sapiens, UniProt Q8TDV5)
Construct: expression vector for human GPR119 cDNA (Acc. No. NP_848566)
Sequence (Q8TDV5 1-335): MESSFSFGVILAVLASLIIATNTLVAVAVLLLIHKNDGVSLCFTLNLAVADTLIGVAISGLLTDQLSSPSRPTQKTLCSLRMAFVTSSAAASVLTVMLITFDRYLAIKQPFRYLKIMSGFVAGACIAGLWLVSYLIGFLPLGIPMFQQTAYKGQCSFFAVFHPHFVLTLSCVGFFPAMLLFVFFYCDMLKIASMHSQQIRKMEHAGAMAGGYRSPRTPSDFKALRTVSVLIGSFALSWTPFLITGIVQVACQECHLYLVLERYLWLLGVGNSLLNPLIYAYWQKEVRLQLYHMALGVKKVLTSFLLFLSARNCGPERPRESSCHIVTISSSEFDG
Experiment: AlphaScreen cAMP assay, activation of GPR119 in MIN6 cells stably transfected with human GPR119
Conditions: Min-6/hGPR119 cells, intracellular cAMP, 45 minutes incubation at room temperature
pEC50: −log10 of the molar value.
Rule: Satisfied for pEC50 not less than 8, Not satisfied for anything less.

Prompt line: Check this compound for pEC50 at or above 8: "C[C@H](OC(=O)N1CCC([C@H]2Cc3cc(-c4ccc(S(C)(=O)=O)cc4)ncc3O2)CC1)C(F)(F)F"
Response line: Satisfied

Prompt line: Check this compound for pEC50 at or above 8: "C[C@H](OC(=O)N1CCC([C@@]2(C)Cc3cc(-c4ccc(S(C)(=O)=O)cc4)ncc3O2)CC1)C(F)(F)F"
Response line: Satisfied

Prompt line: Check this compound for pEC50 at or above 8: "C[C@H](OC(=O)N1CCC([C@H]2Cc3cc(C4=CCN(S(C)(=O)=O)CC4)ncc3O2)CC1)C(F)(F)F"
Response line: Satisfied

Prompt line: Check this compound for pEC50 at or above 8: "C[C@@H](OC(=O)N1CCC([C@@]2(C)Cc3cc(-c4ccc(S(C)(=O)=O)cc4)ncc3O2)CC1)C(F)(F)F"
Response line: Satisfied

Prompt line: Check this compound for pEC50 at or above 8: "C[C@H](OC(=O)N1CCC([C@@]2(C)Cc3cc(C4=CCN(S(C)(=O)=O)CC4)ncc3O2)CC1)C(F)(F)F"
Response line: Satisfied

Prompt line: Check this compound for pEC50 at or above 8: "C[C@H](OC(=O)N1CCC([C@]2(C)Cc3cc(C4=CCN(S(C)(=O)=O)CC4)ncc3O2)CC1)C(F)(F)F"
Response line: Not satisfied
